assay: Plasma pharmacokinetics in mice by LC/MS/MS; type: in vivo, mouse; conditions: male, C57BL6, mouse, plasma, ip, 25 mg/kg, Time 3 hr
REPORTED PROPERTY: concentration at 3 h (ng/mL)
Numbers only here, please. The scale is ng/mL.

Which measured concentration at 3 h value corresponds to "CCc1ccccc1C(=O)Nc1cc2c(cc1F)NC(=O)CC2" ?
2000

* * *

test: Plasma pharmacokinetics in mice by LC/MS/MS; format: in vivo, mouse; settings: male, C57BL6, mouse, plasma, ip, 25 mg/kg, mice, dose 25 mg/kg, i.p.; calculation: time point to 24 hr
REPORTED PROPERTY: half-life (min)
Numbers only here, please. The scale is min.

Which measured half-life value corresponds to "CCc1ccccc1C(=O)Nc1cc2c(cc1F)NC(=O)CC2" ?
139
